- test_system: CDK14/Cyclin Y (Homo sapiens)
- Sequence (O94921 whole entry): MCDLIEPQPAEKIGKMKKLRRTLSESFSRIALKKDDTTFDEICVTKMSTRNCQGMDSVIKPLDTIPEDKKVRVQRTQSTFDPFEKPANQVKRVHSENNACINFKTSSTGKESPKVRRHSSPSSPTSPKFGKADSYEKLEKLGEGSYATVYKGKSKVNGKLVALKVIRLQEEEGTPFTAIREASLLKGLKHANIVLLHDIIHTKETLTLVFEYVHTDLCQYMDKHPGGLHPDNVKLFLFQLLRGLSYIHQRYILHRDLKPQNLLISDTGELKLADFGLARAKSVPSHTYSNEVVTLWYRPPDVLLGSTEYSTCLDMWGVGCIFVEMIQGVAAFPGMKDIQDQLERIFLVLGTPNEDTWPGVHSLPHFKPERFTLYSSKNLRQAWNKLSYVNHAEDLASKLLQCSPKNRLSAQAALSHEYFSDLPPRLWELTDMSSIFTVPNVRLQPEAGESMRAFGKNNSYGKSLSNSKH
- Sequence (Q8ND76 whole entry partner): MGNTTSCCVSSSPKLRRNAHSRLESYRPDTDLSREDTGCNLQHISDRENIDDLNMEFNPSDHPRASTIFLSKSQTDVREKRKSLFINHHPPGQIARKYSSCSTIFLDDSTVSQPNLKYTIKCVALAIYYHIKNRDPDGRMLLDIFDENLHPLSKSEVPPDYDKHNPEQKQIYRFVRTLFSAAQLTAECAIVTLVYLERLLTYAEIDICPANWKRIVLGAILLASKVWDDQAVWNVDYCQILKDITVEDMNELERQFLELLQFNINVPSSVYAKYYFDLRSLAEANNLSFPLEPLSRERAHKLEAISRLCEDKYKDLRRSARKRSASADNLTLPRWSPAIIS
- method_summary: NanoBRET live-cell target engagement, CDK14-NanoLuc/Cyclin Y in HEK-293
- Assay type: binding
- condition_description: CDK14/Y; 10µM
quantity: Inhibition at 10µM (%) Replicate 1
Please respond with the number in % and leave the unit unwritten.

[[record]]
compound = "CC(C)c1cnn2c(NCc3ccccc3)cc(N[C@@H](CO)[C@H](O)CO)nc12 [BS-194]"
value = 70.6

[[record]]
compound = "O=C(Nc1c[nH]nc1-c1ccccn1)c1nn(C2CCNCC2)cc1Cl [BDP5290]"
value = -4.4

[[record]]
compound = "CCC(CO)Nc1nc(Nc2cccc(-c3ccccn3)c2)c2ncn(C(C)C)c2n1.Cl.O [(R) - DRF053]"
value = 8.2


Lab note: next compound to report on.
Q: Give the reported value of Inhibition at 10µM (%) Replicate 1 for this record: CNC1CCN(C(=O)c2ccc(Nc3ncc(F)c(-c4cnc(C)n4C(C)C)n3)cc2)C1 (stereo not shown) [AZD5597]
Ans: 93.6

====

- test_system: CDK20/Cyclin H (Homo sapiens, UniProt Q8IZL9)
- Sequence (Q8IZL9 whole entry): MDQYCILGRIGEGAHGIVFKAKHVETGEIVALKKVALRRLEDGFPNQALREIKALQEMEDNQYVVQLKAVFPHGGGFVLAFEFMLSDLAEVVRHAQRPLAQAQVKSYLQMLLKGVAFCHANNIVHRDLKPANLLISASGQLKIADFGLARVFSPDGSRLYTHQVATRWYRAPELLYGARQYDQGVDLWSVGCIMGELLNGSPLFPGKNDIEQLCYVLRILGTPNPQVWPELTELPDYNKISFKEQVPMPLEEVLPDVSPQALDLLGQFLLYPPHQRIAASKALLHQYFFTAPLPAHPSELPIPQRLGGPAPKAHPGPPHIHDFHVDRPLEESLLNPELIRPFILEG
- Sequence (P51946 whole entry partner): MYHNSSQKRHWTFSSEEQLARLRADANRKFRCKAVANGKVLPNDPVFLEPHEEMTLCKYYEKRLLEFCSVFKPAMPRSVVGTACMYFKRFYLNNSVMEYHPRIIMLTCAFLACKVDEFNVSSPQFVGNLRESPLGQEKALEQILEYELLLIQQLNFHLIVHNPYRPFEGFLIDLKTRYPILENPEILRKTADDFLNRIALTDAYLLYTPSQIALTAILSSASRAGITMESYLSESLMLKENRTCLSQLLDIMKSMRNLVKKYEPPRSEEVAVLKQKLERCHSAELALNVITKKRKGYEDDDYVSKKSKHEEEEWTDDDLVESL
- method_summary: NanoBRET live-cell target engagement, NanoLuc-CDK20/Cyclin H in HEK-293
- Format: binding
- condition_description: read-out: Inhibition at 10µM (%), CDK20/H; experiment 1
Here the recorded inhibition at 10 µM is given for each entry.
Write it as a number; the unit % goes unstated.

Q: Tell me inhibition at 10 µM reported for NS(=O)(=O)c1ccc(Nc2nc(OCC3CCCCC3)c3nc[nH]c3n2)cc1
Ans: 59

Q: Please look at this compound and report its inhibition at 10 µM: COC1CN(C(=O)c2ccc3c(N)ncc(-c4ccc(-c5cnn(C)c5)cc4)c3n2)C1
Ans: 12.7

Q: Quick one: give measured inhibition at 10 µM for COc1ccccc1-c1cc(Nc2cccc(CS(N)(=O)=O)c2)ncn1
Ans: 11.2

Q: In one line, give reported inhibition at 10 µM of the entry CCc1cnn2c(NCc3ccc[n+]([O-])c3)cc(N3CCCC[C@H]3CCO)nc12 .
Ans: 71.7

====

- test_system: CDK11A/Cyclin L2 (Homo sapiens, UniProt Q9UQ88)
- method_summary: NanoBRET live-cell target engagement, CDK11A-NanoLuc/Cyclin L2 in HEK-293
- Assay type: binding
- condition_description: CDK11a/L2; experiment 1; read-out: IC50
quantity: pIC50
When answering, recall that pIC50 equals minus log10 of the concentration in mol/L, and write that number alone.

[[record]]
compound = "COc1ccc(F)cc1-c1cc(NC(=O)C2CCCNC2)ncc1Cl (stereo not drawn)"
test_system = "CDK11A/Cyclin L2 (Homo sapiens, UniProt Q9UQ88)"
value = 8.08

[[record]]
compound = "CC(C)c1c2cc(-c3ccnc(N[C@H]4CC[C@H](NC5CCOCC5)CC4)n3)ccc2nn1C"
test_system = "CDK11A/Cyclin L2 (Homo sapiens, UniProt Q9UQ88)"
value = 8.00


Now consider the entry below.
Q: # lookup: CDK11A/Cyclin L2 (Homo sapiens, UniProt Q9UQ88) pIC50, key = CS(=O)(=O)N1CCC(NC(=O)c2[nH]ncc2NC(=O)c2c(Cl)cccc2Cl)CC1
Ans: 6.65

====

- test_system: CDK11A/Cyclin L2 (Homo sapiens)
- Sequence (Q9UQ88 1-783): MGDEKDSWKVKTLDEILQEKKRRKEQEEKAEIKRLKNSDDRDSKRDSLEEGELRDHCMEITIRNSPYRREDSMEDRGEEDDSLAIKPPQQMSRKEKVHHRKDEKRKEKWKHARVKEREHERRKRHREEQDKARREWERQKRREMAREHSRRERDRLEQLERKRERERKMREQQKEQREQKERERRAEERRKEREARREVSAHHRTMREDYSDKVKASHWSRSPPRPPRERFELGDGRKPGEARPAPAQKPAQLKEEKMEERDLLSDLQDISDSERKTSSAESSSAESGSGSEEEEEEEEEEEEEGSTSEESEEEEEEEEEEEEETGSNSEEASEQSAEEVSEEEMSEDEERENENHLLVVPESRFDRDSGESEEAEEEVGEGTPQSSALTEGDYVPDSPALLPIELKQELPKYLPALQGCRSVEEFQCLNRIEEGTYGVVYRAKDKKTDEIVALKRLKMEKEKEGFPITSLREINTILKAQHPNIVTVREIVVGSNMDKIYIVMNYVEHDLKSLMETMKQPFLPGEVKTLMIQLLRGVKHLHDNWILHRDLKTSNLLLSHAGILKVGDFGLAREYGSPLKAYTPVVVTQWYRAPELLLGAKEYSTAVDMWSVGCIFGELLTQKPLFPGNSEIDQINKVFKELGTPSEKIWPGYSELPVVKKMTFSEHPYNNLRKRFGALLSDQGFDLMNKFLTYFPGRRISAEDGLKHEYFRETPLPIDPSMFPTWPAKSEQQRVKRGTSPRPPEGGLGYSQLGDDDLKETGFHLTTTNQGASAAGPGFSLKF
- method_summary: NanoBRET live-cell target engagement, CDK11A-NanoLuc/Cyclin L2 in HEK-293
- Format: binding
- condition_description: CDK11a/L2; experiment 3; read-out: IC50
quantity: pIC50
Interpret pIC50 as the negative base-10 log of the concentration measured in mol/L.

Q: Return pIC50 (reported value) for this molecule: COc1ccc(F)cc1-c1cc(NC(=O)C2CCCNC2)ncc1Cl (stereo not shown)
Ans: 7.33

====

- test_system: CDK11A/Cyclin L2 (Homo sapiens, UniProt Q9UQ88)
- method_summary: NanoBRET live-cell target engagement, CDK11A-NanoLuc/Cyclin L2 in HEK-293
- Assay type: binding
- condition_description: 10µM; independent experiment 1; read-out: CDK11a/L2 Inhibition at 10µM (%)
Reported inhibition at 10 µM values for a set of molecules
Express your answer in %, writing the number without its unit.

Q: Would you please give the reported inhibition at 10 µM of CN1C/C=C/CCOc2cccc(c2)-c2ccnc(n2)Nc2cccc(c2)C1 with CDK11A/Cyclin L2 (Homo sapiens, UniProt Q9UQ88)?
Ans: 93.3

====

- test_system: CDK11A/Cyclin L2 (Homo sapiens, UniProt Q9UQ88)
- method_summary: NanoBRET live-cell target engagement, CDK11A-NanoLuc/Cyclin L2 in HEK-293
- Assay type: binding
- condition_description: CDK11a/L2; experiment 2
quantity: Inhibition at 10µM (%)
Express your answer in %, writing the number without its unit.

[[record]]
molecule = "CS(=O)(=O)N1CCC(NC(=O)c2[nH]ncc2NC(=O)c2c(Cl)cccc2Cl)CC1"
value = 94.1

[[record]]
molecule = "CC(C)c1cnn2c(NCc3ccccc3-n3cccn3)nc(OC3CCCNC3)nc12 (stereo not drawn)"
value = 61.3

[[record]]
molecule = "CC(C)c1c2cc(-c3ccnc(N[C@H]4CC[C@H](NC5CCOCC5)CC4)n3)ccc2nn1C"
value = 95.7

[[record]]
molecule = "CN1CCC(c2c(O)cc(O)c3c(=O)cc(-c4ccccc4Cl)oc23)C1CO (stereo not drawn)"
value = 24.8

[[record]]
molecule = "CNc1nc(C)c(-c2nc(Nc3cccc(S(N)(=O)=O)c3)ncc2F)s1"
value = 53.0


Next up:
Q: Determine its reported Inhibition at 10µM (%): CCn1cnc2c(Nc3cccc(Cl)c3)nc(N[C@@H]3CCCC[C@@H]3N)nc21 [CGP74514A]
Ans: 43.3

====

- test_system: CDK17/Cyclin Y (Homo sapiens, UniProt Q00537)
- Sequence (Q00537 whole entry): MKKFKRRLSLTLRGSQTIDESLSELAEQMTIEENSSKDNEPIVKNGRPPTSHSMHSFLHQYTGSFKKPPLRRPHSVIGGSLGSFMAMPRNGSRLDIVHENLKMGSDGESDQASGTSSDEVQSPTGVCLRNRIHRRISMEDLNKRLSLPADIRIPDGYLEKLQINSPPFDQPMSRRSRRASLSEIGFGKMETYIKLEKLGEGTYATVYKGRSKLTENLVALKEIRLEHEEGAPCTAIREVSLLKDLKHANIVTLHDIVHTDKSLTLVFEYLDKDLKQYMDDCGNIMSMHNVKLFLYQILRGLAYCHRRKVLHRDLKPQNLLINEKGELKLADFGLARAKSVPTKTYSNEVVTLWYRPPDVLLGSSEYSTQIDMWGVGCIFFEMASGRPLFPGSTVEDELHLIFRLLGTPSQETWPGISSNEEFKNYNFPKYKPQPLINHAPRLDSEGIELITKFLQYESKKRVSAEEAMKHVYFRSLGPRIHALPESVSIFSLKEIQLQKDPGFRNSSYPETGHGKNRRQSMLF
- Sequence (Q8ND76 whole entry partner): as the sequence (Q8ND76 whole entry partner) above
- method_summary: NanoBRET live-cell target engagement, CDK17-NanoLuc/Cyclin Y in HEK-293
- Format: binding
- condition_description: 10µM; independent experiment 1; read-out: CDK17/Y Inhibition at 10µM (%)
Think of 70% as a floor: if inhibition at 10 µM stands on it or above, it is true (1); beneath it, false (0).

The following compounds have reported results that may help.
[[record]]
compound_smiles = "CC(C)[C@H](CO)Nc1nc(Nc2ccc(C(=O)O)c(Cl)c2)c2ncn(C(C)C)c2n1"
qualitative_label = "false (0)"

[[record]]
compound_smiles = "CC(C)CC(=O)Nc1[nH]nc2c1CN(C(=O)C1CCN(C)CC1)C2(C)C"
qualitative_label = "true (1)"

[[record]]
compound_smiles = "CN(C)C/C=C/C(=O)Nc1ccc(C(=O)N2CCC[C@@H](Nc3ncc(Cl)c(-c4c[nH]c5ccccc45)n3)C2)cc1"
qualitative_label = "true (1)"

[[record]]
compound_smiles = "CN1C/C=C/CCOc2cccc(c2)-c2ccnc(n2)Nc2cccc(c2)C1"
qualitative_label = "true (1)"

[[record]]
compound_smiles = "CN1CCN(c2ccc(Nc3ncc4cc5n(c4n3)C3(CCCCC3)CNC5=O)nc2)CC1"
qualitative_label = "false (0)"


Please look at the following compound next.
Q: Reported inhibition at 10 µM at or above 70%? CC(=O)c1c(C)c2cnc(Nc3ccc(N4CCNCC4)cn3)nc2n(C2CCCC2)c1=O
Ans: false (0)
